# experimental target: KDR (Homo sapiens)
# Sequence (P35968 20-1356): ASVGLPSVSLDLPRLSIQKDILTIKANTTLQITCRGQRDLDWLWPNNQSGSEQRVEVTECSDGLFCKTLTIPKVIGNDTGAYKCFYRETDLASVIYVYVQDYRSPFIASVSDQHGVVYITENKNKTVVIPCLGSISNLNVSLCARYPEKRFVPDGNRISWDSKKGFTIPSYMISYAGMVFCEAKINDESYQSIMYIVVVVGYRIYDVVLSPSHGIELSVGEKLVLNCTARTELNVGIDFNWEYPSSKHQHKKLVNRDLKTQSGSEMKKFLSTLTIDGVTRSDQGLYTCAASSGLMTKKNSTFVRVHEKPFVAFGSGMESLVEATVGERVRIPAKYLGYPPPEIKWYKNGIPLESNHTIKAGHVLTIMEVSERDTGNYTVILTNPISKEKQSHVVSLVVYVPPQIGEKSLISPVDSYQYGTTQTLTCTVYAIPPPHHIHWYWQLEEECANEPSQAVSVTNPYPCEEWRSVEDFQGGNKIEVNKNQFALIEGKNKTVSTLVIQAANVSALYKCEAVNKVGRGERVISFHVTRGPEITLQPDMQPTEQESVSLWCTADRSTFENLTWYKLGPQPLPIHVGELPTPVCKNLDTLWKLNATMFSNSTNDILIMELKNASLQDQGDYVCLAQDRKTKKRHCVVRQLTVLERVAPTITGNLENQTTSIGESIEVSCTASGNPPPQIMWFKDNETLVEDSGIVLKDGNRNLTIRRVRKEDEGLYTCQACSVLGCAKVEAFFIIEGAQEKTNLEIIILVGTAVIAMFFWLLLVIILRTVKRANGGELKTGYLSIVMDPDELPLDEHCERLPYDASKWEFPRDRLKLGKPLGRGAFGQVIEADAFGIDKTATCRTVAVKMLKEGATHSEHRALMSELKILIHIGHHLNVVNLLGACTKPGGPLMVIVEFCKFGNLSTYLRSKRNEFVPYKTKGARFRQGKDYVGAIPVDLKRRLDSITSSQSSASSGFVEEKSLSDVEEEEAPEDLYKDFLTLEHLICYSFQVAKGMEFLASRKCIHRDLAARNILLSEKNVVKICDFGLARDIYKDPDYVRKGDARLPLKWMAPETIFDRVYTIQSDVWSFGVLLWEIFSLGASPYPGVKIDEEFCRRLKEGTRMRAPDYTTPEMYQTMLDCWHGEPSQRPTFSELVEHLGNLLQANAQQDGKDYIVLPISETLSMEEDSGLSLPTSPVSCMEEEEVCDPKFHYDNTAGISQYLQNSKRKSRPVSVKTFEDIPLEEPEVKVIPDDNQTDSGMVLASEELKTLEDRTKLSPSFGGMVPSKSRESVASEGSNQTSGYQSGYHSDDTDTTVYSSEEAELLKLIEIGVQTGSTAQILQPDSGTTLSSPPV
# protocol description: KDR kinase activity inhibition test (HTRF)
# Format: biochemical
# experimental conditions: read-out: IC50, inhibitory effects on KDR kinase activity

{"columns": ["compound structure string", "IC50"],
 "data": [
  ["CN1CCN(c2ccc3cc2OCCCOCc2cccc(F)c2-c2cc4c-3n[nH]c4cn2)CC1", "≤ 5 nM"],
  ["CN1CCN(c2ncc3cc2OCCCOc2cccc(F)c2-c2cc4c-3n[nH]c4cn2)CC1", "5 to 50 nM"],
  ["CN1C[C@@H]2C[C@H]1CN2c1ccc2cc1OCCCOCc1cccc(F)c1-c1cc3c-2n[nH]c3cn1", "≤ 5 nM"],
  ["OCCN1CCN(c2ccc3cc2OCCCOCc2cccc(F)c2-c2cc4c-3n[nH]c4cn2)CC1", "5 to 50 nM"],
  ["CN1CCN(c2ccc3cc2OCCCOc2cccc(F)c2-c2cc4c-3n[nH]c4cn2)CC1", "≤ 5 nM"],
  ["CN1C2CCC1CN(c1ccc3cc1OCCCOc1cccc(F)c1-c1cc4c-3n[nH]c4cn1)C2", "≤ 5 nM"]
]}

* * *

# System: Human Jurkat-E6-1 cells
# protocol description: Detection of IL-2 production by Jurkat cells using ELISA
# Type: cell-based
# experimental conditions: anti-CD3/anti-CD28 stimulation 24 hours, tested compound 1.0 μM, read-out: Percentage of the amount of IL-2 secreted by compound treated vs DMSO-treated cells
# Protocol: Tested compounds: compounds prepared in the Examples of this invention. Human Jurkat-E6-1 cells were incubated with various concentrations of tested compounds for 30 minutes in a humidified incubator at 37° C. and 5% CO2. […] The best standard curve was selected by the microplate reader application software, and the corresponding concentration was calculated according to the GD value of the standard. […]
Each record here notes measured activity at 1 µM.

{"columns": ["compound structure string", "activity at 1 µM"],
 "data": [
  ["CN1CCN(c2ncc3cc2OCCCOc2cccc(F)c2-c2cc4c-3n[nH]c4cn2)CC1", "823%"],
  ["OCCN1C2CCC1CN(c1ccc3cc1OCCCOc1cccc(F)c1-c1cc4c-3n[nH]c4cn1)C2", "512%"],
  ["O=C1OC[C@@H]2CN(c3ccc4cc3OCCCOCc3cccc(F)c3-c3cc5c-4n[nH]c5cn3)CCN12", "630%"],
  ["CN1CCN(c2ccc3cc2OCCOCc2cccc(F)c2-c2cc4c-3n[nH]c4cn2)CC1", "568%"],
  ["CN1CCN(c2ccc3cc2OCCCCOCc2cccc(F)c2-c2cc4c-3n[nH]c4cn2)CC1", "235%"],
  ["O[C@@H]1COc2cc(ccc2N2CCN3CCOC[C@H]3C2)-c2n[nH]c3cnc(cc23)-c2c(F)cccc2OC1", "494%"],
  ["Fc1cccc2c1-c1cc3c(n[nH]c3cn1)-c1ccc(N3CCNCC3)c(c1)OCCCOC2", "298%"],
  ["OC1CCN(c2ccc3cc2OCCCOc2cccc(F)c2-c2cc4c-3n[nH]c4cn2)CC1", "504%"]
]}
